test: Measurement of log P values by HPLC on reversed phase columns (methods [a] pH 2.3, [b] pH 2.7, [c] pH 7.8); assay type: physicochemical; conditions: HPLC reversed phase, method [c] pH 7.8
Measured Parameter: logP

* O=C(N[C@@H]1CCC[C@@H]1c1ccc(C(F)(F)F)cc1)c1cccnc1Cl (relative stereo) [Example 315] | 2.98^[c];
* Cc1nc(C(F)(F)F)c(C(=O)N[C@@H]2CCC[C@@H]2c2ccccc2F)s1 (relative stereo) [Example 343] | 3.07^[c];
* O=C(N[C@@H]1C[C@@H]1c1ccc(Cl)cc1)c1nccnc1C(F)(F)F (relative stereo) [Compound 532] | 2.65^[c];
* O=C(NC1CC1c1ccc(Cl)cc1)c1c(F)cccc1I (stereo not shown) [Example 464] | 2.99^[c];
* O=C(NC1CC1c1ccc(Cl)cc1)c1nccnc1Cl (stereo not shown) [Compound 461] | 2.27^[c];
* CC(C)Oc1ccc([C@H]2CCC[C@H]2NC(=O)c2ccc(I)s2)cc1 (relative stereo) [Example 338] | 4.27^[c];

Batch request: logP for each of the following compounds.
1. O=C(N[C@@H]1CCC[C@@H]1c1ccc(C(F)(F)F)cc1)c1ccccc1[N+](=O)[O-] (relative stereo) [Example 306]
2. Cc1ccccc1C(=O)NC1CC1c1ccc(Cl)cc1 (stereo not shown) [Compound 276]
3. CC(C)Oc1ccc([C@H]2CCC[C@H]2NC(=O)c2nccnc2C(F)(F)F)cc1 (relative stereo) [Example 340]
4. CC(C)Oc1ccc([C@H]2CCC[C@H]2NC(=O)c2ccccc2[N+](=O)[O-])cc1 (relative stereo) [Example 318]
5. CC(C)Oc1ccc([C@H]2CCC[C@H]2NC(=O)c2ccccc2Cl)cc1 (relative stereo) [Example 317]
6. O=C(NC1CC1c1ccc(Cl)cc1)c1ccccc1Cl (stereo not shown) [Example 275]
7. O=C(NC1CC1c1ccc(Cl)cc1)c1ccccc1Br (stereo not shown) [Example 272]
8. O=C(N[C@@H]1CCC[C@@H]1c1ccc(C(F)(F)F)cc1)c1ccccc1Br (relative stereo) [Example 303]

OUTPUT:
3.27^[c];
2.70^[c];
3.55^[c];
3.25^[c];
3.73^[c];
2.71^[c];
2.76^[c];
3.68^[c];

Batch request: logP for each of the following compounds.
1. O=C(N[C@@H]1CCC[C@@H]1c1ccccc1F)c1ccccn1 (relative stereo) [Example 339]
2. O=C(N[C@@H]1CCC[C@@H]1c1ccc(C(F)(F)F)cc1)c1ncccc1C(F)(F)F (relative stereo) [Example 331]

OUTPUT:
1.95^[c];
3.28^[c];

Measured values drawn from patent US20160075653A1 for this set.
